Molecular target: Voltage-gated inwardly rectifying potassium channel KCNH2 (Homo sapiens)
Sequence (Q12809 whole entry): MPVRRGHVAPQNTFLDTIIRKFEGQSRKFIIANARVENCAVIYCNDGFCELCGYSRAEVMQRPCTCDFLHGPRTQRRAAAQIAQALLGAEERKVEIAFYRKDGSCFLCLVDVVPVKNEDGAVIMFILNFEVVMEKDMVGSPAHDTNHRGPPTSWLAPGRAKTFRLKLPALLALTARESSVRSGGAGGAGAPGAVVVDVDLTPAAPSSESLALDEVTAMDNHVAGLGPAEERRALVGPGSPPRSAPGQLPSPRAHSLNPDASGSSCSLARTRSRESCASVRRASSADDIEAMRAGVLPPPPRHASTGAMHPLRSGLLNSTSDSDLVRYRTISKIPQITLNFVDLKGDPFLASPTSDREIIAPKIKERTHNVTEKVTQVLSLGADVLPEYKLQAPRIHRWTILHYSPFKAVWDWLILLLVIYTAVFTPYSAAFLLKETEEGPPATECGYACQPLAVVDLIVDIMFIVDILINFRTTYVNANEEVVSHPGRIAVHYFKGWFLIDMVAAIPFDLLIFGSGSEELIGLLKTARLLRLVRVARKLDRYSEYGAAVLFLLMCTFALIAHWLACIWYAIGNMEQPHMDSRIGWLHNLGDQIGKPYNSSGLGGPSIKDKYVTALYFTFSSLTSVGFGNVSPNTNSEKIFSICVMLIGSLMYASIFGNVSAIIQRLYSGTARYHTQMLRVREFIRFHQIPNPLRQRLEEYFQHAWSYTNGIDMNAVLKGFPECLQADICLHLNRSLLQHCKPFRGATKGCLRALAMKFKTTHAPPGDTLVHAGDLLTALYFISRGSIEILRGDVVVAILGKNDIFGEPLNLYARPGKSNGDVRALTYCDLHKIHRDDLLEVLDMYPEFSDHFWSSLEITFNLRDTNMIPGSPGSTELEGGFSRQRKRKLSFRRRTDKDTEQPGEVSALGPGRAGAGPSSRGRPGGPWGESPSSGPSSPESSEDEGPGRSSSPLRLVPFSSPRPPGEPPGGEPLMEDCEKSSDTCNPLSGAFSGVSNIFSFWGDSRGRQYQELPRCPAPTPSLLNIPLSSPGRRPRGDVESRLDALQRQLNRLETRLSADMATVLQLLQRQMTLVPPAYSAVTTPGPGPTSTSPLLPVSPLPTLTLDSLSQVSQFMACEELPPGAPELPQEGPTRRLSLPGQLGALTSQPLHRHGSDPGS
Record form. Attribute: IC50. Fill in for each entry.

Completed entries (count: 3):
INSERT INTO assay_data (given_smiles, subject_of_test, measurement_name, result) VALUES
  ('O=S(=O)(Cc1cc(N2CCOCC2)nc(-c2ccccn2)n1)c1ccccc1', 'Voltage-gated inwardly rectifying potassium channel KCNH2 (Homo sapiens)', 'IC50', '> 32 µM'),
  ('CS(=O)(=O)Cc1cc(N2CCOCC2)nc(-c2cccc3[nH]ccc23)n1', 'Voltage-gated inwardly rectifying potassium channel KCNH2 (Homo sapiens)', 'IC50', '> 33 µM'),
  ('CS(=O)(=O)Cc1cc(N2CCOCC2)nc(-c2ccc3[nH]cnc3c2)n1', 'Voltage-gated inwardly rectifying potassium channel KCNH2 (Homo sapiens)', 'IC50', '> 32 µM');

Provide IC50 values for the following items, in order.
1. CS(=O)(=O)Cc1cc(N2CCOCC2)nc(-c2cnc3[nH]ccc3c2)n1
2. CS(=O)(=O)Cc1cc(N2CCOCC2)nc(-c2ccc3[nH]ccc3c2)n1

1: > 32 µM; 2: > 32 µM

Please give the measured IC50 for this molecule: CS(=O)(=O)Cc1cc(N2CC3CCC(C2)O3)nc(-c2ccc3[nH]ccc3c2)n1
> 32 µM

---

Target: Cytochrome P450 2C9 (Homo sapiens)
Sequence (P11712 whole entry): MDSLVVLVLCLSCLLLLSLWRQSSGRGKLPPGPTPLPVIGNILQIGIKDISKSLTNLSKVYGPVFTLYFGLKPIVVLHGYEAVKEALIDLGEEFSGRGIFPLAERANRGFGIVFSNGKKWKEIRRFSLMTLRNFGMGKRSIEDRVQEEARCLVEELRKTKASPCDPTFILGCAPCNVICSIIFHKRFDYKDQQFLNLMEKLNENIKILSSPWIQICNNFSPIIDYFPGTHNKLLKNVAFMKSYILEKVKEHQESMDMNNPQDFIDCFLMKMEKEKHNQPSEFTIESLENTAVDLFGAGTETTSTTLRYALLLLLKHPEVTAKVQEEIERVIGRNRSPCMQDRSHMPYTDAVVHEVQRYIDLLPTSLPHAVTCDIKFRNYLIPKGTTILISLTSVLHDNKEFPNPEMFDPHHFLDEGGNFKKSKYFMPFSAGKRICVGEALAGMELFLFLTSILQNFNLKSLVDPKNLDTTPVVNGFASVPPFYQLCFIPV
Measurement name: IC50 (µM)
One number for each entry, in µM.

Please give the measured IC50 for this molecule: CS(=O)(=O)Cc1cc(N2CCOCC2)nc(-c2ccc3[nH]ccc3c2)n1
5

---

Record form. Attribute: bioavailability. Fill in for each entry.
Test: Oral bioavailability in rat
Type: ADME, organism-based
Settings: in vivo
Give bare numbers, in %.

Provide bioavailability values for the following items, in order.
1. CS(=O)(=O)Cc1cc(N2CCOCC2)nc(-c2ccc3[nH]cnc3c2)n1
2. CS(=O)(=O)Cc1cc(N2CCOCC2)nc(-c2ccc3[nH]ccc3c2)n1
3. O=S(=O)(Cc1cc(N2CCOCC2)nc(-c2ccccn2)n1)c1ccccc1
4. CS(=O)(=O)Cc1cc(N2CCOCC2)nc(-c2ccc(NS(C)(=O)=O)cc2)n1
5. CS(=O)(=O)Cc1cc(N2CCOCC2)nc(-c2cccc(CO)c2)n1
6. CS(=O)(=O)Cc1cc(N2CCOCC2)nc(-c2cnc3[nH]ccc3c2)n1
7. C[C@H]1COCCN1c1cc(CS(C)(=O)=O)nc(-c2ccc3[nH]ccc3c2)n1

10
3
18
38
41
43
33

Please give the measured bioavailability for this molecule: CS(=O)(=O)Cc1cc(N2CCOCC2)nc(-c2ccccc2)n1
97

---

Test: physchem
Conditions: aqueous, pH 7.4
Hi, to clarify the labels: fulfilled covers solubility from 10 µM upward, not fulfilled covers anything below 10 µM.

Example entries begin here.
INSERT INTO assay_data (given_smiles, discrete_label) VALUES
  ('CS(=O)(=O)Cc1cc(N2CCOCC2)nc(-c2cccc3[nH]ccc23)n1', 'fulfilled'),
  ('C[C@H]1COCCN1c1cc(CS(C)(=O)=O)nc(-c2ccc3[nH]ccc3c2)n1', 'fulfilled'),
  ('CS(=O)(=O)Cc1cc(N2CCOCC2)nc(-c2ccc3[nH]ccc3c2)n1', 'not fulfilled'),
  ('CS(=O)(=O)Cc1cc(N2CC3CCC(C2)O3)nc(-c2ccc3[nH]ccc3c2)n1', 'not fulfilled'),
  ('CS(=O)(=O)Cc1cc(N2CCOCC2)nc(-c2ccc(NS(C)(=O)=O)cc2)n1', 'fulfilled');

With those in mind, consider the next compound.
Quick check, solubility >= 10 µM? CS(=O)(=O)Cc1cc(N2CCOCC2)nc(-c2cnc3[nH]ccc3c2)n1
fulfilled
